# test.system: Melanocortin receptor 4 (Homo sapiens)
# Sequence (P32245 whole entry): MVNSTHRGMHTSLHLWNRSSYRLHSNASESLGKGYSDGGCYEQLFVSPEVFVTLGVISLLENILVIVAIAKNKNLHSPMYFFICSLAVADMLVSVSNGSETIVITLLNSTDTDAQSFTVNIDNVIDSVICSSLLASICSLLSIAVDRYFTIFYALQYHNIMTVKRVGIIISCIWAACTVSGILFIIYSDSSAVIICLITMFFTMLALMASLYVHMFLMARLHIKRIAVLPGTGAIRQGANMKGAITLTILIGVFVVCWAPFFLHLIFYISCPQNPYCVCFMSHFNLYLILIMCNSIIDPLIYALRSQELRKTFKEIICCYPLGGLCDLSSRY
Field: pKi. Provide a value for each of the compounds that follow.
Scale: pKi equals -log10([C]), with [C] in mol/L.

stdin: # lookup: Melanocortin receptor 4 (Homo sapiens) pKi, key = CCN(C(C)=O)C(C)c1ccccc1N1CCN(C(=O)[C@H](CC(=O)N2CCN(C(=O)OC(C)(C)C)CC2)Cc2ccc(Cl)cc2)CC1 (some centres not stated)
stdout: 8.70

stdin: # assay system Melanocortin receptor 4 (Homo sapiens): give pKi of CCN(C(C)=O)C(C)c1ccccc1N1CCN(C(=O)[C@H](CC(=O)NC2CCC2)Cc2ccc(Cl)cc2)CC1 (some centres not stated)
stdout: 8.22

---

# measurement.protocol: Displacement of 125I-[Sar1, Ile8] AngII from rat AT1 receptor expressed in COS1 cells
# Assay type: cell-based
# conditions.used: cos-1
Exercise: for every item that follows, state its recorded pKd.
Friendly reminder that pKd comes from taking -log10 of the concentration in mol/L.

stdin: Give recorded pKd. CCCc1nc(C(C)(C)O)c(C(=O)O)n1Cc1ccc(-c2ccccc2-c2nnn[nH]2)cc1
stdout: 8.64

stdin: Give the reported pKd for this compound. CCCc1nc(C(C)(C)O)c(C(N)=O)n1Cc1ccc(-c2cc(Cc3ccc(O)cc3)ccc2-c2nnn[nH]2)cc1
stdout: 7.32

stdin: Check the records and state pKd for CCCc1nc(C(C)(C)O)c(C(N)=O)n1Cc1ccc(-c2ccccc2-c2nnn[nH]2)cc1
stdout: 9.10

stdin: Look up and state reported pKd for CCCc1nc(C(C)(C)O)c(C(=O)O)n1Cc1ccc(-c2cc(Cc3ccc(O)cc3)ccc2-c2nnn[nH]2)cc1
stdout: 7.68

---

# test.system: B2 bradykinin receptor (Homo sapiens, UniProt P30411)
# Sequence (P30411 whole entry): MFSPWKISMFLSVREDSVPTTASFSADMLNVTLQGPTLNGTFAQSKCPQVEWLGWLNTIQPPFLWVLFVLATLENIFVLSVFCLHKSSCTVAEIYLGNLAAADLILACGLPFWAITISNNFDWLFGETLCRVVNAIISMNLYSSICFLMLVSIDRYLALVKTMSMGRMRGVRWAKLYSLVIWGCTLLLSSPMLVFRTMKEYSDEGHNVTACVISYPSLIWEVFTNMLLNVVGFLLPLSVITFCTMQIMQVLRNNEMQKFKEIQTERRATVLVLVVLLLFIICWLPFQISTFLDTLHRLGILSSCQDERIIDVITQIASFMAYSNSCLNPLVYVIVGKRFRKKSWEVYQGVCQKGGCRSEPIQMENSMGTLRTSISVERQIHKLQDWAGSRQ
# measurement.protocol: Displacement of [3H]BK from cloned human B2 bradykinin receptor expressed in CHO cells after 2 hrs by liquid scintillation counter
metric.name: pIC50
pIC50 is a log-scale quantity: -log10 of the concentration expressed in molar.

stdin: Note down pIC50 recorded for Cc1cc(OCc2ccccn2)c2cccc(OCc3c(Cl)ccc(N(C)C(=O)CNC(=O)/C=C/c4ccc(/C=C/c5ccncc5)nc4)c3Cl)c2n1
stdout: 9.44
